Reported ID50 values follow for various compounds
- Assayed target: DNA polymerase lambda (Homo sapiens)
- Procedure summary: Inhibition of human recombinant full length DNA polymerase lambda TdT-like activity using [3H]dNTP as substrate after 10 mins by scintillation counting analysis
Hi! Could you send only the number? It should be in µM, unit omitted.

Tell me its ID50 on DNA polymerase lambda (Homo sapiens): C/C=C/n1cc(/C=C/C(=O)CC(=O)C(=O)O)c2ccccc21
10

# ---- query compound ----
Write down the reported ID50 (system: DNA polymerase lambda (Homo sapiens)) of CCOC(=O)C(=O)CC(=O)/C=C/c1cc(C(=O)c2cccc(F)c2)c[nH]1
44

---

- Assayed target: DNA nucleotidylexotransferase (Homo sapiens, UniProt P04053)
- Sequence (P04053 whole entry): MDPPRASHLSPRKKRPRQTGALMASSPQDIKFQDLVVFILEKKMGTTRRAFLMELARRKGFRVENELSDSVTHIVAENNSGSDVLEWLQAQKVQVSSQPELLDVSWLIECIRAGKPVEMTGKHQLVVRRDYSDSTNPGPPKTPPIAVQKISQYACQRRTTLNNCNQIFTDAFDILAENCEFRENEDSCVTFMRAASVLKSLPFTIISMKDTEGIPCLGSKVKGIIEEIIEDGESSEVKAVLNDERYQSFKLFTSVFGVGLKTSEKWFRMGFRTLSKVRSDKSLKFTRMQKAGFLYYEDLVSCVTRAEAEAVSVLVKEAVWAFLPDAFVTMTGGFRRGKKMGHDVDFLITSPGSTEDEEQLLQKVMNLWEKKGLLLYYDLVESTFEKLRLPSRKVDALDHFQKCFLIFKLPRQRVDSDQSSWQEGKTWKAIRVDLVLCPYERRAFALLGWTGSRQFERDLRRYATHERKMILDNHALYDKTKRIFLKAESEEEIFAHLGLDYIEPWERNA
- Procedure summary: Inhibition of human recombinant TdT using [3H]dNTP as substrate after 10 mins by scintillation counting analysis
Metric name: log10(ID50) (log10 of the value in µM)
Record value = log10 of ID50 given in µM.

Solved entries:
// fetch log10(ID50) given entry N#Cc1ccc(Cn2cc(C(=O)c3ccccc3)cc2/C=C/C(=O)CC(=O)C(=O)O)cc1
0.83

Report log10(ID50), nothing else, for this molecule: O=C(/C=C/c1cn(Cc2ccccc2)c2ccccc12)CC(=O)C(=O)O
0.90

Look up and report measured log10(ID50) for this entry: O=C(/C=C/c1cc(C(=O)c2cccc(F)c2)c[nH]1)CC(=O)C(=O)O
-0.11

Could you please provide reported log10(ID50) for CCOC(=O)C(=O)CC(=O)/C=C/c1cc(C(=O)c2ccc(F)cc2)c[nH]1 ? Thanks!
0.61

Supply log10(ID50) value. Item: O=C(/C=C/c1cn(Cc2ccc(O)cc2)c2ccccc12)CC(=O)C(=O)O
-0.05

Output log10(ID50) of N#Cc1ccc(Cn2cc(/C=C/C(=O)CC(=O)C(=O)O)c3ccccc32)cc1
0.15

Return the recorded log10(ID50) value; entry: CN(C)C(=O)Cn1cc(/C=C/C(=O)CC(=O)C(=O)O)c2ccccc21
0.95

Determine its reported log10(ID50): C/C=C/Cn1cc(/C=C/C(=O)CC(=O)C(=O)O)c2ccccc21
0.86

Next:
Report log10(ID50) for CCCCn1cc(/C=C/C(=O)CC(=O)C(=O)O)c2ccccc21
1.41

Give log10(ID50) for the following molecule: O=C(/C=C/c1cn(Cc2ccc(F)cc2)c2ccccc12)CC(=O)C(=O)O
1.00

Given N#Cc1ccc(C(=O)c2c[nH]c(/C=C/C(=O)CC(=O)C(=O)O)c2)cc1 , respond with its log10(ID50).
0.04

---

- Assayed target: UniProtKB P04053
- Procedure summary: Inhibition of human recombinant TdT using [3H]dNTP as substrate after 10 mins by scintillation counting analysis
The following compounds are shown together with reported ID50 values.

// known answers, use as guide
Find the measured ID50 of CCOC(=O)C(=O)CC(=O)/C=C/c1cc(C(=O)c2ccccc2)cn1Cc1ccc(F)cc1 with UniProtKB P04053 as test system.
> 40 µM

// fetch ID50; item: CCOC(=O)C(=O)CC(=O)/C=C/c1cn(-c2ccccc2)c2ccccc12 ; system: UniProtKB P04053
> 40 µM

Then there is this compound:
Specify ID50 for CCOC(=O)C(=O)CC(=O)/C=C/c1cn(C=C(C)C)c2ccccc12 , system UniProtKB P04053.
> 40 µM
